Field: sPAP HepG2 B6 assay: Expt 2 EC50. Provide a value for each of the binders that follow.
# EXPERIMENTAL TARGET: T1, gp130 on HepG2 B6 cells (UniProt P40189 23-918, limits assumed)
# T1 sequence (looked up): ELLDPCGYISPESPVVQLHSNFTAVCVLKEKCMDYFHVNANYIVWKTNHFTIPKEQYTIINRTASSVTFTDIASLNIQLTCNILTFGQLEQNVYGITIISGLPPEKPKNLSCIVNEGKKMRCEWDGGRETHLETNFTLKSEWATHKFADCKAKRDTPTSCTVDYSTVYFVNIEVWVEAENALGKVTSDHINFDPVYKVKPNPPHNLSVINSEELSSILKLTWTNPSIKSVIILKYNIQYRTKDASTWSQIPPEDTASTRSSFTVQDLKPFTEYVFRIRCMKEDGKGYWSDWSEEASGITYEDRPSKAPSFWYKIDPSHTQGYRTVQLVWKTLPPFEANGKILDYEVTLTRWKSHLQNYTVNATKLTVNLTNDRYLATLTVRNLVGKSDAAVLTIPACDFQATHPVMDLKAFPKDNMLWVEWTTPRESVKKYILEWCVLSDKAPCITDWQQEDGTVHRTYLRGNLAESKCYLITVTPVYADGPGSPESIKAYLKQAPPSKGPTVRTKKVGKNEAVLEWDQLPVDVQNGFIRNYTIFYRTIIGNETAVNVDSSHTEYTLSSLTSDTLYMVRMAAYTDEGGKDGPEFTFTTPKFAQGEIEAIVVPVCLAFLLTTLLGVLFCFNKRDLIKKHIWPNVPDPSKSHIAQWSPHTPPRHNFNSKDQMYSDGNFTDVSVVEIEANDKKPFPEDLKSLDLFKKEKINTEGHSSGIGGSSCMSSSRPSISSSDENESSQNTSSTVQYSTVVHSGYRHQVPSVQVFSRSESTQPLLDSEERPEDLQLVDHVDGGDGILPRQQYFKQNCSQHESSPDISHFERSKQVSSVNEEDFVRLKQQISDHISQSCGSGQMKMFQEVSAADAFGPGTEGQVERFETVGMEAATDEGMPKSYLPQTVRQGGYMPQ
# PROCEDURE DETAILS: cell-based or functional assay
Express your answer in µg/mL, writing the number without its unit.

Measured sPAP HepG2 B6 assay: Expt 2 EC50, wild type OSM-GST fusion (ligand, pGEX-derived fusion; also called wt OSM-GST; GST-hOSM; not shown: glutathione S-transferase (GST) encoded by modified pGEX-3X (Pharmacia), N-terminal, up to the Factor Xa site region sho) AAIGSCSKEYRVLLGQLQKQTDLMQDTSRLLDPYIRIQGLDVPKLREHCRERPGAFPSEETLRGLGRRGFLQTLNATLGCVLHRLADLEQRLPKAQDLERSGLNIEDLEKLQMARPNILGLRNNIYCMAQLLDNSDTAEPTKAGRGASQPPTPTPASDAFQRKLEGCRFLHGYHRFMHSVGRVFSKWGESPNRSRR : 0.032

Measured sPAP HepG2 B6 assay: Expt 2 EC50, OSM-GST mutant L14A (ligand, Alanine mutant of m4; also called (7)L14A; 7 L14A; not shown: Its linker is left out) AAIGSCSKEYRVLAGQLQKQTDLMQDTSRLLDPYIRIQGLDVPKLREHCRERPGAFPSEETLRGLGRRGFLQTLNATLGCVLHRLADLEQRLPKAQDLERSGLNIEDLEKLQMARPNILGLRNNIYCMAQLLDNSDTAEPTKAGRGASQPPTPTPASDAFQRKLEGCRFLHGYHRFMHSVGRVFSKWGESPNRSRR : 0.0249

Measured sPAP HepG2 B6 assay: Expt 2 EC50, OSM-GST mutant N124A (ligand, not shown: a dimerising Fc or GST; large carriers; small tags and cut ends, Alanine mutant of m4; also called (23)N124A; 23 N124A) AAIGSCSKEYRVLLGQLQKQTDLMQDTSRLLDPYIRIQGLDVPKLREHCRERPGAFPSEETLRGLGRRGFLQTLNATLGCVLHRLADLEQRLPKAQDLERSGLNIEDLEKLQMARPNILGLRNAIYCMAQLLDNSDTAEPTKAGRGASQPPTPTPASDAFQRKLEGCRFLHGYHRFMHSVGRVFSKWGESPNRSRR : 0.0362
